These measurements were taken from patent US20250320184A1.

# study_target: SARM1 (50-724) (Homo sapiens, UniProt Q6SZW1)
# Sequence (Q6SZW1 50-724): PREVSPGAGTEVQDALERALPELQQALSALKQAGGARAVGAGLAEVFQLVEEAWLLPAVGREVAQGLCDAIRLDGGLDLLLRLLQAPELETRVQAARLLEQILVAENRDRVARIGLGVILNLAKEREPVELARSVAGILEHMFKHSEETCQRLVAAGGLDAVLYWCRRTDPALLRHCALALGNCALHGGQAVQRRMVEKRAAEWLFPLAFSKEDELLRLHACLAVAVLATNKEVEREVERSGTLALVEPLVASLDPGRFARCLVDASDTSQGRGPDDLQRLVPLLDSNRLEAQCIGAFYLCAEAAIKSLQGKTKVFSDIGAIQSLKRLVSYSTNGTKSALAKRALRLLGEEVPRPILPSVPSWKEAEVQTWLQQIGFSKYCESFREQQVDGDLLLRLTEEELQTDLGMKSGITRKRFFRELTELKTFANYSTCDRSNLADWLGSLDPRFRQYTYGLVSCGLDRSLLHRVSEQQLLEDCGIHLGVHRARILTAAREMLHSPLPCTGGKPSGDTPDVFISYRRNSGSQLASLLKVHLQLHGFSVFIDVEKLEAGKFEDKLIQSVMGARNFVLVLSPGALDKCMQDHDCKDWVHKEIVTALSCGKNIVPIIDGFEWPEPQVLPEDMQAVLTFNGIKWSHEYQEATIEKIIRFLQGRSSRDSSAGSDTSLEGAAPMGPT
# test_protocol: biochemical
pIC50: −log10 of the molar value.
metric: pIC50

[[record]]
compound = "Cc1c2ccc(NC(C)c3nc(Cl)c(Cl)s3)cc2nn1CC(N)=O (single isomer, unassigned) [Compound 312]"
reading = "> 7.00"

[[record]]
compound = "CC(Nc1ccc2c(c1)C(=O)NCC2)c1ccc(Cl)c(Cl)c1 (racemic)"
reading = "6.00 to 6.30"

[[record]]
compound = "CC(Nc1ccc2c(c1)NC(=O)C2(C)C)c1c(Cl)ccc(F)c1Cl (racemic)"
reading = "> 7.00"

[[record]]
compound = "Cc1cc(F)cc(C(Cc2ccccc2)Nc2ccc3c(c2)C(=O)NCC3)c1 (racemic)"
reading = "< 6.00"

[[record]]
compound = "CC(Nc1ccc2cc[nH]c(=O)c2c1)c1cc(F)cc(Cl)c1Cl (racemic)"
reading = "> 7.00"

[[record]]
compound = "CC(Nc1ccc2nc[nH]c(=O)c2c1)c1cccc(Cl)c1Cl (single isomer, unassigned) [Example 152]"
reading = "> 7.00"

[[record]]
compound = "Cc1ccc(Cl)c(S(=O)(=O)Nc2ccc3c(c2)C(=O)NCC3)c1Cl"
reading = "> 7.00"

[[record]]
compound = "CC(Nc1ccc2c(c1)C(=O)NCN2)c1ccc(F)c(Cl)c1Cl (racemic)"
reading = "6.30 to 7.00"

[[record]]
compound = "CC(Nc1ccc2nc[nH]c(=O)c2n1)c1ccc(F)c(Cl)c1Cl (single isomer, unassigned) [Compound 386]"
reading = "> 7.00"

[[record]]
compound = "O=c1[nH]ccc2ccc(NS(=O)(=O)c3c(Cl)ccc(Cl)c3Cl)cc12"
reading = "> 7.00"

[[record]]
compound = "CC(Nc1ccc2ccn(C)c(=O)c2c1)c1ncc(Cl)s1 (racemic)"
reading = "< 6.00"

[[record]]
compound = "Cc1c(F)ccc(C(C)Nc2ccc3cc[nH]c(=O)c3c2)c1Cl (racemic)"
reading = "> 7.00"

[[record]]
compound = "CC(Nc1nc2ccccc2s1)c1nc(Cl)c(Cl)s1 (racemic)"
reading = "> 7.00"

[[record]]
compound = "CC[C@@H](C(N)=O)c1ccc(N[C@H](C)c2nc(Cl)c(Cl)s2)cc1 (single isomer, unassigned) [Compound 302B]"
reading = "< 6.00"

[[record]]
compound = "CC(Nc1ccc2nc[nH]c(=O)c2c1)c1cccc(Cl)c1Cl (single isomer, unassigned) [Example 152A]"
reading = "6.00 to 6.30"

[[record]]
compound = "O=C1NCCc2ccc(NS(=O)(=O)c3c(F)cc(F)cc3F)cc21"
reading = "< 6.00"

[[record]]
compound = "CC(=O)NC1CCCc2ccc(NS(=O)(=O)c3cccc(Cl)c3Cl)cc21 (racemic)"
reading = "> 7.00"

[[record]]
compound = "Cc1ccc(F)cc1S(=O)(=O)Nc1ccc2c(c1)C(=O)NCC2"
reading = "< 6.00"

[[record]]
compound = "CC(Nc1ccc2c(c1)NC(=O)CC2)c1nc(Cl)c(Cl)s1 (racemic)"
reading = "6.30 to 7.00"

[[record]]
compound = "Clc1cccc(C(Nc2ccc3cccnc3c2)C2CCC2)c1Cl (centres unmarked)"
reading = "6.30 to 7.00"

[[record]]
compound = "Cc1c(F)cccc1S(=O)(=O)Nc1cccc(N2CCNC2=O)c1"
reading = "< 6.00"

[[record]]
compound = "Cc1c2ccc(NC(C)c3nc(Cl)c(Cl)s3)cc2nn1[C@@H]1CC[C@@H](O)C1 (stereo in doubt)"
reading = "> 7.00"

[[record]]
compound = "Cc1cn[nH]c1-n1cnc2c(F)cc(NC(C)c3nc(Cl)c(Cl)s3)cc2c1=O (racemic)"
reading = "> 7.00"

[[record]]
compound = "Cc1c2ccc(NC(C)c3nc(Cl)c(Cl)s3)cc2nn1C1CCOCC1 (racemic)"
reading = "> 7.00"

[[record]]
compound = "O=S(=O)(Nc1ccc2c(C3CC3)n[nH]c2c1)c1cccc(Cl)c1Cl"
reading = "> 7.00"

[[record]]
compound = "CC(Nc1ccc2cc[nH]c(=O)c2c1)c1nccc(Cl)c1Cl (single isomer, unassigned) [Example 194B]"
reading = "< 6.00"

[[record]]
compound = "CC(Nc1ccc2cc[nH]c(=O)c2c1)c1ccc(Cl)cc1 (racemic)"
reading = "< 6.00"

[[record]]
compound = "CC(Nc1ccc2cn[nH]c2c1)c1cccc(Cl)c1Cl (centres unmarked) [Example 12A]"
reading = "6.00 to 6.30"

[[record]]
compound = "Cc1c2ccc(NC(C)c3nc(Cl)c(Cl)s3)cc2nn1[C@@H]1CC[C@H](O)C1 (stereo in doubt)"
reading = "> 7.00"

[[record]]
compound = "CC1(C)c2ccc(NS(=O)(=O)c3cccc(Cl)c3Cl)cc2C(=O)N1CCO"
reading = "6.30 to 7.00"

[[record]]
compound = "CC(Nc1ccc2nc[nH]c(=O)c2c1)c1ccc(F)c(Cl)c1Cl (racemic)"
reading = "> 7.00"

[[record]]
compound = "Cc1ccc(C(C)Nc2ccc3c(c2)C(=O)NCC3)cc1F (racemic)"
reading = "< 6.00"


###

# study_target: SARM1 (50-724) (Homo sapiens, UniProt Q6SZW1)
# test_protocol: biochemical
metric: IC50

[[record]]
compound = "CC(Nc1ccc2c(c1)c(N)nn2C)c1nc(Cl)c(Cl)s1 (centres unmarked)"
study_target = "SARM1 (50-724) (Homo sapiens, UniProt Q6SZW1)"
reading = "< 100 nM"

[[record]]
compound = "CC1(C)Cc2ccc(NS(=O)(=O)c3cccc(Cl)c3Cl)cc2NC1=O"
study_target = "SARM1 (50-724) (Homo sapiens, UniProt Q6SZW1)"
reading = "100 to 500 nM"

[[record]]
compound = "CC(Nc1ccc2nc[nH]c(=O)c2c1)c1nc(Cl)c(Cl)s1 (centres unmarked)"
study_target = "SARM1 (50-724) (Homo sapiens, UniProt Q6SZW1)"
reading = "< 100 nM"

[[record]]
compound = "Cc1c(F)cccc1S(=O)(=O)Nc1ccc2c(c1)C(=O)OCC2"
study_target = "SARM1 (50-724) (Homo sapiens, UniProt Q6SZW1)"
reading = "> 1000 nM"

[[record]]
compound = "Cc1ccccc1S(=O)(=O)Nc1ccc2c(c1)C(=O)NCC2"
study_target = "SARM1 (50-724) (Homo sapiens, UniProt Q6SZW1)"
reading = "> 1000 nM"

[[record]]
compound = "CCC(Nc1ccc2nc[nH]c(=O)c2c1)c1nccc(Cl)c1Cl (racemic)"
study_target = "SARM1 (50-724) (Homo sapiens, UniProt Q6SZW1)"
reading = "100 to 500 nM"

[[record]]
compound = "CC1CCC(C)N(S(=O)(=O)Nc2ccc3c(c2)C(=O)NCC3)C1 (mixture of isomers)"
study_target = "SARM1 (50-724) (Homo sapiens, UniProt Q6SZW1)"
reading = "> 1000 nM"

[[record]]
compound = "Cc1nn(CC(N)=O)c(=O)c2nc(NC(C)c3nn(C)c(Cl)c3Cl)ccc12 (racemic)"
study_target = "SARM1 (50-724) (Homo sapiens, UniProt Q6SZW1)"
reading = "< 100 nM"

[[record]]
compound = "O=C1CCCc2ccc(NS(=O)(=O)c3cccc(Cl)c3Cl)cc2N1"
study_target = "SARM1 (50-724) (Homo sapiens, UniProt Q6SZW1)"
reading = "< 100 nM"

[[record]]
compound = "CC(Nc1ccc2c(c1)NC(=O)OC2(C)C)c1nc(Cl)c(Cl)s1 (racemic)"
study_target = "SARM1 (50-724) (Homo sapiens, UniProt Q6SZW1)"
reading = "< 100 nM"

[[record]]
compound = "CC(Nc1ccc2cc[nH]c(=O)c2c1)c1cccc(Cl)c1Cl (racemic)"
study_target = "SARM1 (50-724) (Homo sapiens, UniProt Q6SZW1)"
reading = "< 100 nM"

[[record]]
compound = "CC(Nc1ccc2c(c1)c(C(=O)N(C)C)nn2C)c1c(Cl)ccc(F)c1Cl (racemic)"
study_target = "SARM1 (50-724) (Homo sapiens, UniProt Q6SZW1)"
reading = "100 to 500 nM"

[[record]]
compound = "CC(Nc1ccc2c(c1)C(=O)NCC2)c1cc(F)cc(Cl)c1 (racemic)"
study_target = "SARM1 (50-724) (Homo sapiens, UniProt Q6SZW1)"
reading = "100 to 500 nM"

[[record]]
compound = "Cc1nc(C(C)Nc2ccc3cc[nH]c(=O)c3c2)c(Cl)n1C (racemic)"
study_target = "SARM1 (50-724) (Homo sapiens, UniProt Q6SZW1)"
reading = "100 to 500 nM"

[[record]]
compound = "CC1C(=O)Nc2cc(NS(=O)(=O)c3cccc(Cl)c3Cl)ccc21 (centres unmarked)"
study_target = "SARM1 (50-724) (Homo sapiens, UniProt Q6SZW1)"
reading = "< 100 nM"

[[record]]
compound = "CC(Nc1ccc2nc[nH]c(=O)c2c1)c1c(Cl)ccc(Cl)c1Cl (racemic)"
study_target = "SARM1 (50-724) (Homo sapiens, UniProt Q6SZW1)"
reading = "< 100 nM"

[[record]]
compound = "CC1(C)CN(C(=O)c2cccnc2)c2cc(NS(=O)(=O)c3cccc(Cl)c3Cl)ccc21"
study_target = "SARM1 (50-724) (Homo sapiens, UniProt Q6SZW1)"
reading = "< 100 nM"

